Give CIM 2285R for every item shown.
System: Mycobacterium avium 2285R (rough)
assayInfo: Antimicrobial spectrum MIC, M. avium rough
Type: cell-based

-- ask // returns reported CIM 2285R for input COc1ccc2nc(C)nc(NCCCc3ccccc3)c2c1 [18b]
-- reply > 100 µM

-- ask // returns reported CIM 2285R for input Cc1nc(NCCCc2ccccc2)c2cc(Br)ccc2n1 [18c]
-- reply > 100 µM

-- ask // returns reported CIM 2285R for input CC[C@H]1OC(=O)[C@H](C)[C@@H](O[C@H]2C[C@@](C)(OC)[C@@H](O)[C@H](C)O2)[C@H](C)[C@@H](O[C@@H]2O[C@H](C)C[C@H](N(C)C)[C@H]2O)[C@](C)(OC)C[C@@H](C)C(=O)[C@H](C)[C@@H](O)[C@]1(C)O [25 (CLA), Clarithromycin, reference compound]
-- reply 1.4 µM

-- ask // returns reported CIM 2285R for input Cc1nc(NCCCc2ccccc2)c2cc(I)ccc2n1 [18d]
-- reply > 100 µM

* * *

assayInfo: in vitro
measurementConditions: human
Response field label takes T when CC50 at 72 h is strictly below 10 µM and F in all other cases.

-- ask Check if CC50 at 72 h falls below 10 µM for c1ccc(CCCNc2ncnc3ccccc23)cc1 [18e] .
-- reply T

-- ask Check if CC50 at 72 h falls below 10 µM for Cc1nc(NCCCc2ccccc2)c2cc(I)ccc2n1 [18d] .
-- reply F

-- ask Check if CC50 at 72 h falls below 10 µM for Cc1ccc(CCNc2nc(C)nc3ccc(I)cc23)cc1 [15d] .
-- reply F

-- ask Check if CC50 at 72 h falls below 10 µM for COc1ccc2nc(C)nc(NCCCc3ccccc3)c2c1 [18b] .
-- reply F

-- ask Check if CC50 at 72 h falls below 10 µM for Cc1nc(NCCc2ccc(OC(F)(F)F)cc2)c2cc(I)ccc2n1 [13d] .
-- reply T

-- ask Check if CC50 at 72 h falls below 10 µM for Cc1nc(NCCCc2ccccc2)c2cc(Br)ccc2n1 [18c] .
-- reply F

-- ask Check if CC50 at 72 h falls below 10 µM for Cc1nc(NCCc2ccc(OC(F)(F)F)cc2)c2cc(Br)ccc2n1 [13c] .
-- reply T

-- ask Check if CC50 at 72 h falls below 10 µM for CCc1ccc(CCNc2nc(C)nc3ccc(I)cc23)cc1 [16d] .
-- reply T

-- ask Check if CC50 at 72 h falls below 10 µM for Cc1nc(NCCc2ccc3ccccc3c2)c2cc(Br)ccc2n1 [17c] .
-- reply T

* * *

assayInfo: Microsomal stability, mouse liver microsomes (MLM)
Format: in vitro ADME
measurementConditions: male, BALB/c, mouse, microsomes, pH 7.4
outcomeMeasure: remaining at 20 min, 6 μM (%)
The figure you give is taken to be in %; do not add the unit.

-- ask // returns reported remaining at 20 min, 6 μM for input Cc1nc(NCCCc2ccccc2)c2cc(Br)ccc2n1 [18c]
-- reply 2

* * *

Tested on: Mycobacterium abscessus 103R
assayInfo: Antimicrobial spectrum MIC, M. abscessus
Format: cell-based
outcomeMeasure: CIM 103R

-- ask // returns reported CIM 103R for input Cc1nc(NCCCc2ccccc2)c2cc(Br)ccc2n1 [18c]
-- reply > 100 µM

-- ask // returns reported CIM 103R for input Cc1nc(NCCCc2ccccc2)c2cc(I)ccc2n1 [18d]
-- reply > 100 µM

-- ask // returns reported CIM 103R for input COc1ccc2nc(C)nc(NCCCc3ccccc3)c2c1 [18b]
-- reply > 100 µM

-- ask // returns reported CIM 103R for input CC[C@H]1OC(=O)[C@H](C)[C@@H](O[C@H]2C[C@@](C)(OC)[C@@H](O)[C@H](C)O2)[C@H](C)[C@@H](O[C@@H]2O[C@H](C)C[C@H](N(C)C)[C@H]2O)[C@](C)(OC)C[C@@H](C)C(=O)[C@H](C)[C@@H](O)[C@]1(C)O [25 (CLA), Clarithromycin, reference compound]
-- reply 0.5 µM

Just for reference, paper PMC12257397 is where these values come from.
